Where these numbers come from: patent US20220332699A1

Assay Info: Mouse pharmacokinetics
Assay type: in vivo
Study Conditions: mouse; 30 mg/kg PO, male CD-1 mice, plasma
Metric: half-life (min)
# unit: min | format: bare number

Query: Quick check: half-life of "N#CC1(Cc2ccc(F)cc2)CCN(C(=O)c2cccnc2-c2ccncn2)CC1" ?
Result: 57.6

---

Tested System: CYP46A1 (Homo sapiens, UniProt Q9Y6A2)
Sequence (Q9Y6A2 whole entry): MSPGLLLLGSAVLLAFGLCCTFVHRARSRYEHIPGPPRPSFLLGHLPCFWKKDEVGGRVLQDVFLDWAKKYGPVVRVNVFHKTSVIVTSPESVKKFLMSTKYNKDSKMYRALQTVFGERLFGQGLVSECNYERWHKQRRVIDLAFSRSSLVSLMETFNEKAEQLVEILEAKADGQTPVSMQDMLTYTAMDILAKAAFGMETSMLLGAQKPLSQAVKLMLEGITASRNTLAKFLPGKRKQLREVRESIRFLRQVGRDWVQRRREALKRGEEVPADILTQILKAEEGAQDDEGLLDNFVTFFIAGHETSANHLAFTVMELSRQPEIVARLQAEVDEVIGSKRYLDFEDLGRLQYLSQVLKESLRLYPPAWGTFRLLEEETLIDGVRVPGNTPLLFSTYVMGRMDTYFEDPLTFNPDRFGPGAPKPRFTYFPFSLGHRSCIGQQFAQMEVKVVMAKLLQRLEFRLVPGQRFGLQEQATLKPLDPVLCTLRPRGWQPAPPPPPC
Assay Info: CYP46A1 Enzyme Assay 2 (testosterone substrate, HPLC-MS)
Format: biochemical
Study Conditions: read-out: IC50 (CYP46A1 inhibitory activity)
Measured IC50 of individual entries

{"columns": ["Compound", "IC50"],
 "data": [
  ["C[C@@H](c1ccc(F)cc1F)C1(C#N)CCN(C(=O)c2cccnc2-c2ccncn2)CC1 [Compound A242]", "< 0.1 µM"]
]}

Query: Can you look up IC50 on CYP46A1 (Homo sapiens, UniProt Q9Y6A2) for N#CC1(CC2CCOCC2)CCN(C(=O)c2cccnc2-c2ccncn2)CC1 [Compound A48] ?
Result: 0.1 to 1 µM

Query: Can you look up IC50 on CYP46A1 (Homo sapiens, UniProt Q9Y6A2) for N#CC1(Cc2ccc(C(F)(F)F)cc2F)CCN(C(=O)c2cccnc2-c2ccncn2)CC1 [Compound A240] ?
Result: < 0.1 µM

Query: Can you look up IC50 on CYP46A1 (Homo sapiens, UniProt Q9Y6A2) for N#CC1(Cc2ccc(F)c(F)c2)CCN(C(=O)c2cccnc2-c2ccncc2)CC1 [Compound A69] ?
Result: < 0.1 µM

Query: Can you look up IC50 on CYP46A1 (Homo sapiens, UniProt Q9Y6A2) for N#CC1(Cc2ccccc2F)CCN(C(=O)c2cccnc2-c2ccncc2)CC1 [Compound A12] ?
Result: < 0.1 µM

Query: Can you look up IC50 on CYP46A1 (Homo sapiens, UniProt Q9Y6A2) for C[C@H](c1ccc(C(F)(F)F)cc1F)C1(C#N)CCN(C(=O)c2cccnc2-c2ccncn2)CC1 [Compound A287] ?
Result: < 0.1 µM

Query: Can you look up IC50 on CYP46A1 (Homo sapiens, UniProt Q9Y6A2) for N#CC1(Cc2ccc(Cl)cc2Br)CCN(C(=O)c2cccnc2-c2ccncn2)CC1 [Compound A232] ?
Result: < 0.1 µM

Query: Can you look up IC50 on CYP46A1 (Homo sapiens, UniProt Q9Y6A2) for N#CC1(Cc2cccc(C(F)(F)F)c2)CCN(C(=O)c2cccnc2-c2ccncn2)CC1 [Compound A264] ?
Result: < 0.1 µM

Query: Can you look up IC50 on CYP46A1 (Homo sapiens, UniProt Q9Y6A2) for N#CC1(CCCCc2ccccc2)CCN(C(=O)c2cccnc2-c2ccncc2)CC1 [Compound A67] ?
Result: < 0.1 µM

Query: Can you look up IC50 on CYP46A1 (Homo sapiens, UniProt Q9Y6A2) for CC(C)(O)c1ccc(CC2(C#N)CCN(C(=O)c3cccnc3-c3ccncn3)CC2)cc1 [Compound A223] ?
Result: 0.1 to 1 µM

Query: Can you look up IC50 on CYP46A1 (Homo sapiens, UniProt Q9Y6A2) for C[C@H](c1ccc(F)cc1F)C1(C#N)CCN(C(=O)c2cccnc2-c2ccncc2)CC1 [Compound A237] ?
Result: < 0.1 µM

Query: Can you look up IC50 on CYP46A1 (Homo sapiens, UniProt Q9Y6A2) for N#CC1(Cc2ccc(F)cc2)CCN(C(=O)c2c(F)cccc2-c2ccncn2)CC1 [Compound A221] ?
Result: < 0.1 µM
